Assay: Tolerability in CD1 mice: kidney function, BUN, creatinine (Example 33)
Conditions: plasma, 50 mg/kg s.c. twice a week, 2 weeks
Measurement type: Creatinine

{"Substance": "ISIS 417002: MOE gapmer, nucleobases 1275 to 1318 of SEQ ID NO: 1 (Table 8) (antisense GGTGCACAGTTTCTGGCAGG; MOE gapmer, wing and gap sizes not given here)", "Measurement type": "Creatinine", "Readout value": "0.06 mg/dL"}
{"Substance": "ISIS 416838: MOE gapmer, nucleobases 1018 to 1042 of SEQ ID NO: 1 (Table 6) (antisense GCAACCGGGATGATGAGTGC; MOE gapmer, wing and gap sizes not given here)", "Measurement type": "Creatinine", "Readout value": "0.09 mg/dL"}
{"Substance": "ISIS 416850: MOE gapmer, nucleobases 1275 to 1318 of SEQ ID NO: 1 (Table 8) (antisense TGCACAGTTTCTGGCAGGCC; MOE gapmer, wing and gap sizes not given here)", "Measurement type": "Creatinine", "Readout value": "0.13 mg/dL"}

---

Assay: Hematology assays in cynomolgus monkeys (Example 45)
Assay type: in vivo
Settings: day 36
Property: monocytes; scope: individual substances
Measurement type: monocytes (%)

{"Substance": "ISIS 416858: MOE gapmer, nucleobases 1275 to 1318 of SEQ ID NO: 1 (Table 8) (antisense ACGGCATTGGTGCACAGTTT; MOE gapmer, wing and gap sizes not given here)", "Readout value": 2.9}
{"Substance": "ISIS 416864: MOE gapmer, nucleobases 1275 to 1318 of SEQ ID NO: 1 (Table 8) (antisense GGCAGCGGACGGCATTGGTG; MOE gapmer, wing and gap sizes not given here)", "Readout value": 2.3}
{"Substance": "ISIS 417002: MOE gapmer, nucleobases 1275 to 1318 of SEQ ID NO: 1 (Table 8) (antisense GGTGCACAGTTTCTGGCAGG; MOE gapmer, wing and gap sizes not given here)", "Readout value": 2.6}
{"Substance": "ISIS 416850: MOE gapmer, nucleobases 1275 to 1318 of SEQ ID NO: 1 (Table 8) (antisense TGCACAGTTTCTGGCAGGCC; MOE gapmer, wing and gap sizes not given here)", "Readout value": 2.1}
{"Substance": "ISIS 416838: MOE gapmer, nucleobases 1018 to 1042 of SEQ ID NO: 1 (Table 6) (antisense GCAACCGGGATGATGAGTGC; MOE gapmer, wing and gap sizes not given here)", "Readout value": 2.5}

---

Test: Liver function, ALT, AST, bilirubin in cynomolgus monkeys (Example 45)
Assay type: in vivo
Conditions: plasma; day 85; escalating dose regimen
Measurement type: Bilirubin (mg/dL)

{"Substance": "ISIS 416858: MOE gapmer, nucleobases 1275 to 1318 of SEQ ID NO: 1 (Table 8) (antisense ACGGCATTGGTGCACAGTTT; MOE gapmer, wing and gap sizes not given here)", "Readout value": 0.14}
{"Substance": "ISIS 416864: MOE gapmer, nucleobases 1275 to 1318 of SEQ ID NO: 1 (Table 8) (antisense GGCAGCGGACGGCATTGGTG; MOE gapmer, wing and gap sizes not given here)", "Readout value": 0.17}
{"Substance": "ISIS 416850: MOE gapmer, nucleobases 1275 to 1318 of SEQ ID NO: 1 (Table 8) (antisense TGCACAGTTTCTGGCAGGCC; MOE gapmer, wing and gap sizes not given here)", "Readout value": 0.14}

---

Assay: Hematology assays in cynomolgus monkeys (Example 45)
Type: in vivo
Details: day −5
Experimental: Groups, each consisting of two male and three female monkeys, were injected subcutaneously with ISIS 416838, ISIS 416850, ISIS 416858, ISIS 416864, or ISIS 417002 in escalating doses. […] Body weights were measured weekly. […]
Documented lymphocytes across a set of substances

{"Substance": "ISIS 416864: MOE gapmer, nucleobases 1275 to 1318 of SEQ ID NO: 1 (Table 8) (antisense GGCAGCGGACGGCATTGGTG; MOE gapmer, wing and gap sizes not given here)", "lymphocytes / %": 44}
{"Substance": "ISIS 416850: MOE gapmer, nucleobases 1275 to 1318 of SEQ ID NO: 1 (Table 8) (antisense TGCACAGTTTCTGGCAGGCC; MOE gapmer, wing and gap sizes not given here)", "lymphocytes / %": 43}
{"Substance": "ISIS 416858: MOE gapmer, nucleobases 1275 to 1318 of SEQ ID NO: 1 (Table 8) (antisense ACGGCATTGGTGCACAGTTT; MOE gapmer, wing and gap sizes not given here)", "lymphocytes / %": 49}

---

Measured platelet aggregation, listed per entry for reference.
Tested on: platelet aggregation
Assay: Platelet aggregation assay, ADP and/or collagen (Example 45)
Type: in vivo, cynomolgus monkeys
Details: day 57 (with ADP); escalating dose regimen

{"Substance": "ISIS 417002: MOE gapmer, nucleobases 1275 to 1318 of SEQ ID NO: 1 (Table 8) (antisense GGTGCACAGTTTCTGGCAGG; MOE gapmer, wing and gap sizes not given here)", "Unit string": "Ohms", "platelet aggregation": 18}
{"Substance": "ISIS 416838: MOE gapmer, nucleobases 1018 to 1042 of SEQ ID NO: 1 (Table 6) (antisense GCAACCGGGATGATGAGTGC; MOE gapmer, wing and gap sizes not given here)", "Unit string": "Ohms", "platelet aggregation": 7}

---

Tested on: human Factor 11 mRNA
Experiment: Dose-dependent inhibition of human Factor 11 in HepB3 cells, lipofectin (Example 7)
Type: cell-based
Details: 4.7 nM, ~16 hours
Experimental: Cells were plated at a density of 4,000 cells per well and transfected using lipofectin reagent with 2.3 nM, 4.7 nM, 9.4 nM, 18.75 nM, 37.5 nM, and 75 nM concentrations of antisense oligonucleotide, as specified in Table 14. After a treatment period of approximately 16 hours, RNA was isolated from the cells and human Factor 11 mRNA levels were measured by quantitative real-time PCR. […] Factor 11 mRNA levels were adjusted according to total RNA content, as measured by RIBOGREEN. […]
Values of percent inhibition of Factor 11 mRNA relative to untreated control cells greater than or equal to 30% map to 1 (yes); values below map to 0 (no).

{"Substance": "416825 (antisense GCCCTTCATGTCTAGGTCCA; 5-10-5 gapmer, further chemistry not given here) [compound 416825]", "Test target": "human Factor 11 mRNA", "Group label": "0 (no)"}
{"Substance": "416864 (antisense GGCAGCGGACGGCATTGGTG; 5-10-5 gapmer, further chemistry not given here) [compound 416864]", "Test target": "human Factor 11 mRNA", "Group label": "1 (yes)"}
{"Substance": "416925 (antisense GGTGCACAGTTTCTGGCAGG; 3-14-3 gapmer chemistry, further chemistry not given here) [compound 416925]", "Test target": "human Factor 11 mRNA", "Group label": "1 (yes)"}
{"Substance": "416892 (antisense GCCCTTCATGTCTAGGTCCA; 3-14-3 chimeric gapmer, further chemistry not given here) [compound 416892]", "Test target": "human Factor 11 mRNA", "Group label": "1 (yes)"}
{"Substance": "416858 (antisense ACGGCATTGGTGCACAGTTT; 5-10-5 gapmer, further chemistry not given here) [compound 416858]", "Test target": "human Factor 11 mRNA", "Group label": "1 (yes)"}
{"Substance": "417003 (antisense TGGTGCACAGTTTCTGGCAG; 2-13-5 gapmer chemistry, further chemistry not given here) [compound 417003]", "Test target": "human Factor 11 mRNA", "Group label": "0 (no)"}
{"Substance": "416999 (antisense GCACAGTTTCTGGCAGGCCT; 2-13-5 gapmer chemistry, further chemistry not given here) [compound 416999]", "Test target": "human Factor 11 mRNA", "Group label": "1 (yes)"}

---

Test system: blood coagulation
Test: PT and aPTT assay in cynomolgus monkeys (Example 45)
Assay type: in vivo
Conditions: day 50; escalating dose regimen; platelet poor plasma
Catalogue of substances with associated PT ratio (INR)
Measurement type: PT ratio (INR)

{"Substance": "ISIS 417002: MOE gapmer, nucleobases 1275 to 1318 of SEQ ID NO: 1 (Table 8) (antisense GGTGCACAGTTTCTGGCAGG; MOE gapmer, wing and gap sizes not given here)", "Readout value": 0.99}
{"Substance": "ISIS 416850: MOE gapmer, nucleobases 1275 to 1318 of SEQ ID NO: 1 (Table 8) (antisense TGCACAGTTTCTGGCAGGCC; MOE gapmer, wing and gap sizes not given here)", "Readout value": 1.02}
{"Substance": "ISIS 416858: MOE gapmer, nucleobases 1275 to 1318 of SEQ ID NO: 1 (Table 8) (antisense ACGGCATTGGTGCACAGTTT; MOE gapmer, wing and gap sizes not given here)", "Readout value": 1.03}
{"Substance": "ISIS 416838: MOE gapmer, nucleobases 1018 to 1042 of SEQ ID NO: 1 (Table 6) (antisense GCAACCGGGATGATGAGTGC; MOE gapmer, wing and gap sizes not given here)", "Readout value": 1.02}
{"Substance": "ISIS 416864: MOE gapmer, nucleobases 1275 to 1318 of SEQ ID NO: 1 (Table 8) (antisense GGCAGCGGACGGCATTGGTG; MOE gapmer, wing and gap sizes not given here)", "Readout value": 1.01}
